- procedure summary: solvent given as SMILES
- conditions: in CCOC(C)=O
metric name: fluorescence lifetime (ns)
Form entry: value (ns) — number only.

Example entries begin here.
structure string: CN(C)c1ccc(-c2nc3c(c4c2-c2ccc(C#N)cc2CC4)-c2ccc(C#N)cc2CC3)cc1
metric name: fluorescence lifetime
experimental result: 2.55
--
structure string: CC1=[N+]2C(=C(c3ccc(C=O)cc3)c3ccc(C)n3[B-]2(F)F)C=C1c1cc2n(c1)[B-](F)(F)[N+]1=CC=CC1=C2c1c(C)cc(C)cc1C
metric name: fluorescence lifetime
experimental result: 0.9
--
structure string: O=Cc1ccc(N(c2ccc(C=O)cc2)c2ccc(-c3ccc4c(c3)C(=O)c3ccccc3C4=O)cc2)cc1
metric name: fluorescence lifetime
experimental result: 1.49

Turning to the following compound.
Looking for the measured fluorescence lifetime of CCOC(=O)C(C(=O)OCC)C1=[N+]2C(=C(c3ccc(C)cc3)c3ccc(C(C(=O)OCC)C(=O)OCC)n3[B-]2(F)F)C=C1 , can you help?
2.5

====

- procedure summary: solvent given as SMILES
- conditions: in O=P(c1ccccc1)(c1ccccc1)c1ccccc1Oc1ccccc1P(=O)(c1ccccc1)c1ccccc1
metric name: log10 of fluorescence lifetime (log10 of the value in ns)
On a log10 scale: recorded fluorescence lifetime, unit ns.

Example entries begin here.
structure string: CC1(C)c2ccccc2N(c2ccccc2)c2ccc(-c3nc(-c4ccccc4)nc(-c4ccccc4)n3)cc21
metric name: log10 of fluorescence lifetime
experimental result: 0.64
--
structure string: c1ccc(-c2nc(-c3ccccc3)nc(-c3ccc(-n4c5ccccc5c5cc6c(cc54)C(c4ccccc4)(c4ccccc4)c4ccccc4-6)cc3)n2)cc1
metric name: log10 of fluorescence lifetime
experimental result: 1.01
--
structure string: CC(C)(C)c1ccc2c(c1)c1cc(C(C)(C)C)ccc1n2-c1ccc(S(=O)(=O)c2ccc(-n3c4ccc(C(C)(C)C)cc4c4cc(C(C)(C)C)ccc43)cc2)cc1
metric name: log10 of fluorescence lifetime
experimental result: 0.88
--
structure string: Cc1ccc2c(c1)c1cc(C)ccc1n2-c1cccc(-n2c3ccc(C)cc3c3cc(C)ccc32)c1C#N
metric name: log10 of fluorescence lifetime
experimental result: 0.82
--
structure string: O=C(c1ccc(-n2c3ccccc3c3cc(-n4c5ccccc5c5ccccc54)ccc32)cc1)c1ccc(-n2c3ccccc3c3cc(-n4c5ccccc5c5ccccc54)ccc32)cn1
metric name: log10 of fluorescence lifetime
experimental result: 1.79

Looking for the measured log10 of fluorescence lifetime of CC1(C)c2ccccc2N(c2ccccc2)c2ccc(C(=O)c3ccc4c(c3)C(C)(C)c3ccccc3N4c3ccccc3)cc21 , can you help?
-0.09

Also need F[B-]1(F)Oc2ccccc2-c2cc(-n3c4ccc(-c5ccccc5)cc4c4cc(-c5ccccc5)ccc43)cc[n+]21 , thanks.
0.80

====

- procedure summary: solvent given as SMILES
- conditions: in Cc1ccccc1
metric name: log10(fluorescence lifetime) (log10 of the value in ns)
On a log10 scale: recorded fluorescence lifetime, unit ns.

Example entries begin here.
structure string: CCOc1cc2c(cc1/C=C/C1=CC(=C(C#N)C#N)CC(C)(C)C1)c1ccccc1n2CC
experimental result: 0.58
--
structure string: CCCCCCCCCCCCn1nnc(-c2ccc(C#Cc3ccc(C#Cc4ccc(-c5nnn(CCCCCCCCCCCC)n5)cc4)c4nc5c6ccccc6c6ccccc6c5nc34)cc2)n1
experimental result: 0.55
--
structure string: CCOC(=O)CN1C(=O)C2=C(c3ccc(N4CCCCC4)cc3)N(CC(=O)OCC)C(=O)C2=C1c1ccccc1
experimental result: 0.60
--
structure string: C(=C\c1ccc(-n2c3ccccc3c3ccccc32)cc1)/c1ccc(-c2ccc(/C=C/c3ccc(-n4c5ccccc5c5ccccc54)cc3)cc2)cc1
experimental result: -0.06
--
structure string: CC1=CC(C)=[N+]2C1=C(c1ccc(-c3ccc(O)cc3)s1)c1c(C)cc(C)n1[B-]2(F)F
experimental result: 0.54

Looking for the measured log10(fluorescence lifetime) of c1ccc(N2c3ccc4ccccc4c3-c3c4ccccc4nc[n+]3[B-]2(c2ccccc2)c2ccccc2)cc1 , can you help?
0.19

Also need COc1ccc(-c2nc(C)cc(-c3ccc(-n4c5ccccc5c5ccccc54)cc3)n2)cc1 , thanks.
0.27

Also need CC1(C)c2ccccc2N(c2ccc(-c3ccc4c(c3)C(=O)c3ccc(-c5ccc(N6c7ccccc7C(C)(C)c7ccccc76)cc5)cc3C4=O)cc2)c2ccccc21 , thanks.
0.62

The measured values listed here are drawn from the Deep4Chem optical property database.
